system: kochia (Bassia scoparia); experiment: Test A1 postemergence, kochia; assay type: in vivo; conditions: Postemergence, 125 g ai/ha; 0 to 100 scale
Text: […]
Labelling field: enter Met if recorded Plant response rating, Kochia is less than 40. Enter Not met if it equals or exceeds that cut-off.

Below are worked cases with known answers.
compound	target-entity	discrete-label
CCCCOC1CC(c2cc(NS(=O)(=O)C(F)(F)F)c(C)cc2C)=NO1 (centres unmarked)	kochia (Bassia scoparia)	Not met
Cc1c(NS(=O)(=O)C(F)(F)F)cc(C(=O)N(C)C)c(C)c1Cl	kochia (Bassia scoparia)	Met
COC1CCN(C(=O)c2cc(NS(=O)(=O)C(F)(F)F)c(C)c(C)c2C)CC1	kochia (Bassia scoparia)	Met
COC1CCN(C(=O)c2cc(N(COC(=O)C(C)(C)C)S(=O)(=O)C(F)(F)F)c(C)c(C)c2C)CC1	kochia (Bassia scoparia)	Met
Cc1c(NS(=O)(=O)C(F)(F)F)cc(C(=O)N2CCOCC2)c(C)c1C	kochia (Bassia scoparia)	Not met

# ---- query compound ----
[Q] Say whether its Plant response rating, Kochia is strictly beneath 40. Entry: COc1cc(C)c(NS(=O)(=O)C(F)(F)F)cc1C1=NOC2CCCC12 (centres unmarked)
[A] Met

----------
test system: corn (Zea mays); experiment: Test A1 postemergence, corn; assay type: in vivo; conditions: Postemergence, 31 g ai/ha; 0 to 100 scale (0 no effect, 100 complete control); 10 days
From the text: […]
Catalogue of Plant response rating, Corn readings, one per entry.
Give the value as a plain number.

Some solved cases for reference:
compound	target-entity	measure-name	readout-number
Cc1c(NS(=O)(=O)C(F)(F)F)cc(C(=O)N2CCC(Cl)CC2)c(C)c1C [Compound 356]	corn (Zea mays)	Plant response rating, Corn	0
Cc1cc(C2CC2)c(NS(=O)(=O)C(F)(F)F)cc1C1=NOC2(CCCC2)C1 [Compound 313]	corn (Zea mays)	Plant response rating, Corn	0
Cc1cc(C)c(N(COC(=O)C(C)(C)C)S(=O)(=O)C(F)(F)F)cc1C1=NOC2(C)CCCC12 (centres unmarked) [Compound 341]	corn (Zea mays)	Plant response rating, Corn	0
CCC1ON=C(c2cc(N(C(=O)OCC(C)C)S(=O)(=O)C(F)(F)F)c(C)cc2C)C1CC (centres unmarked) [Compound 345]	corn (Zea mays)	Plant response rating, Corn	0
Cc1cc(C)c(C2=NOC3OCCC23)cc1NS(=O)(=O)C(F)(F)F (centres unmarked) [Compound 349]	corn (Zea mays)	Plant response rating, Corn	40

// Plant response rating, Corn lookup, compound = C#CCN(C)C(=O)c1cc(NS(=O)(=O)C(F)(F)F)c(C)c(C)c1C [Compound 368] , result: 40

// Plant response rating, Corn lookup, compound = Cc1cc(C2CC2)c(C2=NOC3CCCC23)cc1NS(=O)(=O)C(F)(F)F (centres unmarked) [Compound 307] , result: 0

// Plant response rating, Corn lookup, compound = Cc1c(NS(=O)(=O)C(F)(F)F)cc(C(=O)N2CCSCC2)c(C)c1C [Compound 283] , result: 0

----------
test system: galium (catchweed bedstraw, Galium aparine); assay: Test A postemergence, galium; format: in vivo; conditions: Postemergence, 500 g ai/ha; visual injury approx. 10 days; 0 to 100 scale (0 no effect, 100 complete control)
Catalogue of Plant response rating, Galium readings, one per entry.
Give the value as a plain number.

Some solved cases for reference:
structure-smiles-string	target-entity	Plant response rating, Galium
Cc1cc(Cl)c(C(=O)N2CCCCC2)cc1NS(=O)(=O)C(F)(F)F	galium (catchweed bedstraw, Galium aparine)	80
Cc1cc(C)c(N(S(=O)(=O)C(F)(F)F)S(=O)(=O)C(F)(F)F)cc1N1CCC2(CCCC2)C1=O	galium (catchweed bedstraw, Galium aparine)	90

Next compound, please.
// Plant response rating, Galium lookup, compound = Cc1cc(C)c(N(S(=O)(=O)C(F)(F)F)S(=O)(=O)C(F)(F)F)cc1C(=O)N1CCC(Cl)CC1 , result: 90

----------
Catalogue of Plant response rating, Kochia readings, one per entry.
system: kochia (Bassia scoparia); assay: Test A preemergence, kochia; assay type: in vivo; details: Preemergence, 31 g ai/ha; visual injury, 0 to 100 scale (0 no effect, 100 complete control), approx. 10 days
Give the value as a plain number.

compound	readout-number
Cc1cc(C)c(N(COC(=O)C2CCCCC2)S(=O)(=O)C(F)(F)F)cc1C1=NOC2(CCCC2)C1	20
CCC(C)C(=O)OCN(c1cc(C2=NOC3(CCCC3)C2)c(C)cc1C)S(=O)(=O)C(F)(F)F (stereo not drawn)	0
Cc1cc(C)c(C(=O)N2COC(C)(C)C2)cc1NS(=O)(=O)C(F)(F)F	10
Cc1cc(C)c(C(=O)N2CCC(C#N)CC2)cc1NS(=O)(=O)C(F)(F)F	30
COC(=O)N(c1cc(C(=O)N2CCCC(OC)C2)c(C)cc1C)S(=O)(=O)C(F)(F)F (stereo not drawn)	0
CCC(=O)OCN(c1cc(C2=NOC3(CCCC3)C2)c(C)cc1C)S(=O)(=O)C(F)(F)F	0

// Plant response rating, Kochia lookup, compound = COC1CCCN(C(=O)c2cc(N(C(C)=O)S(=O)(=O)C(F)(F)F)c(C)cc2C)C1 (stereo not drawn) , result: 0

// Plant response rating, Kochia lookup, compound = COC1CN(C(=O)c2cc(NS(=O)(=O)C(F)(F)F)c(C)cc2C)C1 , result: 0

// Plant response rating, Kochia lookup, compound = CSC1CCCN(C(=O)c2cc(NS(=O)(=O)C(F)(F)F)c(C)cc2C)C1 (stereo not drawn) , result: 30

----------
Catalogue of Plant response rating, Wheat readings, one per entry.
system: wheat (Triticum aestivum); assay: Test A1 preemergence, wheat; type: in vivo; conditions: 125 g ai/ha, 0 to 100 scale, 0 no effect, 100 complete control
Give the value as a plain number.

Some solved cases for reference:
compound	readout-number
CCC1ON=C(c2cc(N(C(=O)OCC(C)C)S(=O)(=O)C(F)(F)F)c(C)cc2C)C1CC (stereo not drawn) [Compound 345]	10
Cc1cc(Br)c(NS(=O)(=O)C(F)(F)F)cc1C1=NOC2(CCCC2)C1 [Compound 309]	60
Cc1cc(C2CC2)c(C2=NOC3CCCC23)cc1N(COC(=O)C(C)(C)C)S(=O)(=O)C(F)(F)F (stereo not drawn) [Compound 355]	10
CCC1CC(c2cc(N(COC(=O)C(C)(C)C)S(=O)(=O)C(F)(F)F)c(C)cc2C)=NO1 (stereo not drawn) [Compound 376]	20
Cc1c(NS(=O)(=O)C(F)(F)F)cc(C(=O)N2CCCCC2)c(C)c1C [Compound 326]	50

// Plant response rating, Wheat lookup, compound = COC1CCN(C(=O)c2cc(N(COC(=O)C(C)(C)C)S(=O)(=O)C(F)(F)F)c(C)c(C)c2C)CC1 [Compound 370] , result: 10

// Plant response rating, Wheat lookup, compound = Cc1c(C(=O)N2CCOCC2)cc(N(COC(=O)C(C)(C)C)S(=O)(=O)C(F)(F)F)c(C)c1C [Compound 324] , result: 70

// Plant response rating, Wheat lookup, compound = Cc1cc(C)c(N(COC(=O)C(C)(C)C)S(=O)(=O)C(F)(F)F)cc1N1CCC2(CCC(C(F)(F)F)CC2)C1=O (stereo not drawn) [Compound 403] , result: 0

// Plant response rating, Wheat lookup, compound = Cc1cc(C)c(N(COC(=O)C(C)(C)C)S(=O)(=O)C(F)(F)F)cc1C(=O)N1CCOCC1 [Compound 362] , result: 70

// Plant response rating, Wheat lookup, compound = CCOC1CC(c2cc(NS(=O)(=O)C(F)(F)F)c(C)cc2C)=NO1 (stereo not drawn) [Compound 318] , result: 50

// Plant response rating, Wheat lookup, compound = Cc1cc(F)c(NS(=O)(=O)C(F)(F)F)cc1C1=NOC2(CCCC2)C1 [Compound 303] , result: 90

// Plant response rating, Wheat lookup, compound = Cc1c(C(=O)N2CCC(C)CC2)cc(N(COC(=O)C(C)(C)C)S(=O)(=O)C(F)(F)F)c(C)c1C [Compound 369] , result: 0

----------
Tested on: ragweed (common ragweed, Ambrosia artemisiifolia)
Test: Test A postemergence, ragweed
Format: in vivo
Conditions: Postemergence, 500 g ai/ha; visual injury vs untreated controls after approx. 10 days; 0 to 100 scale (0 no effect, 100 complete control)
Description: Seeds of plant species selected from barnyardgrass (Echinochloa crus-galli), kochia (Bassia scoparia), ragweed (common ragweed, Ambrosia artemisiifolia), Ryegrass, Italian (Italian ryegrass, Lolium multiflorum), Foxtail, Giant (giant foxtail, Setaria faberi), and pigweed (Amaranthus retroflexus) were planted into a blend of loam soil and sand and treated preemergence with a directed soil spray using test chemicals formulated in a non-phytotoxic solvent mixture which included a surfactant. […]
Ragweed plant response rating of 80 or higher: 1 (yes). Under 80: 0 (no).

Below are worked cases with known answers.
molecule	discrete-label
CSC(=O)N(c1cc(C2=NOC3(CCCC3)C2)c(C)cc1C)S(=O)(=O)C(F)(F)F [Compound 219]	0 (no)
COCC1(COC)CC(c2cc(NS(=O)(=O)C(F)(F)F)c(C)cc2C)=NO1 [Compound 104]	1 (yes)
Cc1cc(C)c(-c2cc(Cl)nn(C)c2=O)cc1NS(=O)(=O)C(F)(F)F [Compound 72]	0 (no)
Cc1cc(Cl)c(N(S(=O)(=O)C(F)(F)F)S(=O)(=O)C(F)(F)F)cc1C1=NOC2(CCCCC2)C1 [Compound 217]	0 (no)
C#CCN(C)C(=O)c1cc(N(S(=O)(=O)C(F)(F)F)S(=O)(=O)C(F)(F)F)c(C)c(F)c1C [Compound 147]	1 (yes)

[Q] Does the reported Ragweed plant response rating for Cc1cc(C)c(N(S(C)(=O)=O)S(=O)(=O)C(F)(F)F)cc1-c1cc(Cl)nn(C)c1=O [Compound 46] fall at or above the 80 mark?
[A] 0 (no)
